# method.notes: differential killing of epithelial or mesenchymal cells, primary screen, imaging, PC-3E GFP, TEM4-18 mCherry, co-culture (AID 1345086);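 also: cells exposed to compound for 72 h before imaging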
# reported.conditions: imaging cell counts, measured here: mesenchymal TEM4-18 mCherry cell survival, at 1 µM
observation.type: normalised cell number

molecule=COc1ccc(-c2cc(=O)c3c(O)cc(O[C@@H]4O[C@H](CO[C@H]5O[C@H](C)[C@@H](O)[C@H](O)[C@@H]5O)[C@@H](O)[C@H](O)[C@H]4O)cc3o2)cc1O recorded_result=0.98
molecule="C/C1=C\\[C@H](C)C[C@H](C)[C@@H](C)OC(=O)[C@H](Cc2ccccc2)NC(=O)[C@@H](C)C(=O)C(C)C1O (some centres not stated)" recorded_result=1.06
molecule="CC1(C)C2CCC1(C)C(O)C2 (configuration not stated)" recorded_result=0.9
molecule="CO[C@H]1OC(COCc2ccccc2)C(O)[C@@H]2OC(=O)N[C@H]12 (some centres not stated)" recorded_result=0.95
molecule=CCCCC[C@H](CC(=O)NO)C(=O)N[C@H](C(=O)N1CCC[C@H]1CO)C(C)C recorded_result=0.93
molecule="CC(CC(=O)N1C(=O)OC[C@H]1c1ccccc1)N1C(=S)OC[C@@H]1c1ccccc1 (some centres not stated)" recorded_result=0.99
molecule=CC1=C2[C@](C)(C=CC1=O)C[C@H](O)[C@H]1[C@H](C)C(=O)O[C@]21C recorded_result=1.15
molecule=COc1cccc(Oc2c(O)cc(C)cc2CC(=O)c2cc(C)cc(O)c2C(=O)c2c(O)cccc2O)c1C(=O)O recorded_result=1.21
molecule="C[C@@H]1CC2C3CCC4=CC(=O)C=C[C@]4(C)[C@@]3(F)[C@@H](O)C[C@]2(C)[C@H]1C(=O)CO (some centres not stated)" recorded_result=1.16
molecule=O=C1OCC[C@H]1Oc1ccc(Oc2cnc3ccc(Cl)cc3n2)cc1 recorded_result=1.09
molecule="CC(=O)[C@H]1CCC2C3CCC4=CC(=O)CC[C@]4(C)C3CC[C@@]21C (some centres not stated)" recorded_result=1.11
molecule="C[C@]12CCC3c4ccc(O)cc4CCC3C1CC[C@@H]2O (some centres not stated)" recorded_result=1.53
molecule=COc1ccc(-c2coc3cc(OC)ccc3c2=O)cc1 recorded_result=1.09
molecule=CC1(C)C[C@H]2[C@@]1(O)[C@@H](O)C[C@]1(C)[C@H](O)C=C[C@]21CO recorded_result=1.07
molecule=Cc1cc2nc3c(=O)[nH]c(=O)nc-3n(C[C@@H](O)[C@@H](O)[C@@H](O)COP(=O)(O)O)c2cc1C recorded_result=1.04
molecule="COC(=O)C1O[C@H](OCc2ccccc2)[C@@H](OC(C)=O)[C@@H](OC(C)=O)C1OC(C)=O (some centres not stated)" recorded_result=1.13
molecule="CC(=O)O[C@H]1C[C@@]2(C)[C@@H](C[C@@H](O)C3[C@]2(C)CC[C@H]2[C@H](C)[C@H](O)CC[C@]32C)/C1=C(/CCC=C(C)C)C(=O)O (some centres not stated)" recorded_result=1.36
molecule=O=C(O)c1cc(O)c2c(c1)[C@@H]([C@@H]1c3cc(C(=O)O)cc(O)c3C(=O)c3c(O[C@H]4O[C@H](CO)[C@@H](O)[C@H](O)[C@H]4O)cccc31)c1cccc(O[C@H]3O[C@H](CO)[C@@H](O)[C@H](O)[C@H]3O)c1C2=O recorded_result=0.84
molecule="COc1cc(O)c2c(c1)C(=O)C1=C(C2=O)C(OC)OC1 (configuration not stated)" recorded_result=0.92
molecule=CC(C)(O)c1ccccc1CC[C@@H](SC1(CC(=O)O)CC1)c1cccc(/C=C/c2ccc3ccc(Cl)cc3n2)c1 recorded_result=1.16
molecule="COC(=O)CCC(C)[C@H]1CCC2C3C(C[C@H](O)[C@@]21C)[C@@]1(C)CC[C@@H](O)C[C@H]1C[C@H]3O (some centres not stated)" recorded_result=1.02
molecule="C=CC(C1=CC(=O)C=CC1=O)c1ccccc1 (configuration not stated)" recorded_result=1
molecule="C[C@@H]1O[C@@H](OC[C@H]2OC(Oc3c(-c4ccc(OCCO)c(OCCO)c4)oc4cc(OCCO)cc(O)c4c3=O)[C@H](O)[C@@H](O)[C@@H]2O)[C@H](O)[C@H](O)[C@H]1O (some centres not stated)" recorded_result=0.96
molecule="CC1OC1P(=O)(O)O (configuration not stated)" recorded_result=1.16
molecule=COc1cc(O)c(C(=O)/C=C/c2ccc(O)c(OC)c2)c(OC)c1 recorded_result=1.02
molecule="CC1(C)CC[C@]2(C(=O)O)CC[C@]3(C)C(=CCC4[C@@]5(C)CC[C@H](O)[C@@](C)(CO)C5CC[C@]43C)C2C1 (some centres not stated)" recorded_result=0.98
molecule="CC(=O)N[C@@H]1[C@@H](C(O)[C@H](O)CO)O[C@](O)(C(=O)O)C[C@@H]1O (some centres not stated)" recorded_result=1.12
molecule="C=C(NC(=O)C(=C)NC(=O)c1csc(C2=NC3c4csc(n4)C4NC(=O)c5csc(n5)C(C(C)(O)C(C)O)NC(=O)C5CSC(=N5)C(=CC)NC(=O)C(C(C)O)NC(=O)c5csc(n5)C3(CC2)NC(=O)C(C)NC(=O)C(=C)NC(=O)C(C)NC(=O)C(C(C)CC)NC2C=Cc3c(C(C)O)cc(nc3C2O)C(=O)OC4C)n1)C(N)=O (configuration not stated)" recorded_result=0.75
molecule="CCOC(=O)CC(=O)N1CCSC1COc1ccccc1OC (configuration not stated)" recorded_result=0.93
molecule="CCCCCCCCCCCCCCCC(=O)O[C@@H]1[C@@H](O)[C@@H](O)C([C@H](NC(=O)[C@@H]2C[C@@H](CCC)CN2C)[C@H](C)Cl)O[C@@H]1SC (some centres not stated)" recorded_result=0.95
molecule="O=c1c(-c2ccc(O)cc2)coc2c(C3O[C@H](CO)[C@@H](O)[C@H](O)[C@H]3O)c(O)ccc12 (some centres not stated)" recorded_result=1.13
molecule=O=S(=O)(O)c1cc(N=C=S)ccc1/C=C/c1ccc(N=C=S)cc1S(=O)(=O)O recorded_result=1.11
